experiment: qHTS profiling for inhibitors of Plasmodium falciparum (DD2) proliferation (AID 743323); conditions: lower = more inhibition; at 28.7 µM (top of the series)
So I've got a bunch of compounds here, and I need their activity, percent of control values.
Answers are plain numbers, in %.

Solved cases below.
• OC[C@H]1OC([S-])[C@H](O)[C@@H](O)[C@H]1O.[Au+] (some centres undefined) = 98.2
• COc1cc2c(cc1C(F)(F)F)N(C(=O)Nc1cc(F)cc(-c3cccnc3)c1)CC2 = 5.68
• CC#C[C@]1(O)CC[C@H]2[C@@H]3CCC4=CC(=O)CCC4=C3[C@H](c3ccc(N(C)C)cc3)C[C@@]21C = 17.2

For the compound shown here, `CC(C)N=C(N)N=C(N)Nc1ccc(Cl)cc1` , give the reported activity, percent of control.
0.237

====

assay: qHTS for Inhibitors of Plasmodium falciparum (GB4) proliferation (AID 504315); further: nearly all actives have a fitted effect of over 50% in size; conditions: P. falciparum GB4 in erythrocytes, SYBR Green DNA, 72 h; series mostly up to 6.7 µM
Records with an inconclusive call do not appear. Activity calls are given as the source filed them. Calls follow the shape of the dose curve; as a rule, active = well fitted inhibition curve with a large enough effect; inconclusive = small, poorly fitted or top-dose-only effect, or effect the other way; inactive = flat fitted curve, though single readings scatter.
Give your call using only these classes: True (active), False (inactive)

Reference set (4 entries):
- C#CCCCON=C1C[C@@H](O)[C@H](O)[C@H]2[C@@H]3C(=O)N(Cc4ccc5c(c4)OCO5)C(=O)[C@@H]3CC[C@H]12: False
- COC(=O)C[C@H]1c2ccccc2[C@@H]2C(=C[C@@H](C)[C@H]3C(=O)N(O)C(=O)[C@H]32)N1C(=O)OC: False
- COCCN1C(=O)N(C)C(c2ccccc2)C(C(C)=O)=C1C (centres undefined): False
- CC#CCC1(C(=O)OC)C(=O)NC[C@H]1c1ccccc1 (some centres undefined): False

Note: attention shifts to another entry.
Identify the outcome logged in this assay for the compound shown: CCCCc1cc2c(cn1)=C(OC(=O)c1cccs1)C(C)(OC(=O)CC)C(=O)C=2 (centres undefined)
True

====

assay: HEK293 12hr Apoptosis Induction qHTS against the NCATS CANVASS Library (AID 1347361); settings: HEK293 caspase-3/7 Caspase-Glo luminescence; series mostly up to 46.1 µM
Inconclusive results are not listed. Activity calls are given as the source filed them. The call rests on the fitted dose curve; in most records, active means well fitted activation curve with a large enough effect; inconclusive means small, poorly fitted or top-dose-only effect; inactive means flat fitted curve, though single readings scatter. Numbered stars: 1 amine (or outer) side, 2 acyl side, 3 side chain; on linkers, the order of the positions; unused ones are H or OH. Square brackets hold non-standard residues; d marks the D form. Peptide text beside a SMILES is read from it. X1 = CCCCCCCCCC(=O)[C@H](C(=O)[*:2])[C@@H]1CNC(=O)[C@@H](N[*:1])CS1
Give your call using only these classes: label 1 for active, label 0 for inactive

Reference set (4 entries):
- Oc1ccc(/C=C2/c3cc(O)cc(O)c3C(c3ccc(O)cc3)[C@H]2c2cc(O)cc(O)c2)cc1 (some centres undefined): label 0
- O=C(O)CC1OCc2c(O)cccc21 (centres undefined): label 0
- CC(=O)NC[C@@H]1O[C@H](CC/C=C(C)/C(C)=C/C=O)[C@H](C)C[C@H]1O: label 0
- CC1=CC[C@@]2(C[C@@H]1O)[C@@H](C(=O)O)CC[C@H]2C(C)C: label 0

Identify the outcome logged in this assay for the molecule shown: `O=Cc1ccc2n1C[C@@]1(C[C@H](O)[C@H](O)CO1)OC2`
label 0

Identify the outcome logged in this assay for the molecule shown: CN1C(=O)C2C(N=CN2C)N(C)C1=O (centres undefined)
label 0

Identify the outcome logged in this assay for the molecule shown: `O=Cc1ccc2n1C[C@@]1(C[C@H](O)[C@@H](CO)O1)OC2`
label 0

Identify the outcome logged in this assay for the molecule shown: `Cc1cc(O)cc2oc(C[C@H](C)O)cc(=O)c12`
label 0

Identify the outcome logged in this assay for the molecule shown: `CC1(C)C=Cc2c(ccc3c2OC[C@@H](c2ccc(O)cc2O)C3)O1`
label 0

Identify the outcome logged in this assay for the molecule shown: `CCCCCCCCC[C@@H]1C[C@@H]2CC[C@H]3[C@@H](C(=O)OCCCCN=C(N)N)[C@@H](C)N=C(N1)N23`
label 0

Identify the outcome logged in this assay for the molecule shown: Oc1ccc([C@H]2Oc3ccc(/C=C/c4cc(O)cc(O)c4)cc3C2c2cc(O)cc(O)c2)cc1 (some centres undefined)
label 0

Identify the outcome logged in this assay for the molecule shown: `COc1ccc(CCCc2cc(O)c(OC)c(O)c2)c(O)c1O`
label 0

Identify the outcome logged in this assay for the molecule shown: O=C(OC1Cc2c(O)cc(O)cc2OC1c1cc(O)c(O)c(O)c1)c1cc(O)c(O)c(O)c1 (centres undefined)
label 0

Identify the outcome logged in this assay for the molecule shown: `CN1CC[C@]2(c3cccc4c3N[C@@H]3N(C)CC[C@]43[C@@]34CCN(C)[C@@H]3Nc3ccccc34)c3ccccc3N[C@H]12`
label 0

Identify the outcome logged in this assay for the molecule shown: `COc1c(O)cc2oc(-c3ccccc3)cc(=O)c2c1O`
label 0

Identify the outcome logged in this assay for the molecule shown: `C/C=C1/CC[C@@H]2c3[nH]c4ccccc4c3CCN2C1`
label 0

Identify the outcome logged in this assay for the molecule shown: `C/C=C/c1cc(OC)c2c(c1)[C@@H](C)[C@H](c1ccc(O)c(OC)c1)O2`
label 0

Identify the outcome logged in this assay for the molecule shown: `C[C@@H]1C[C@H]2C[C@]3(CCCCN3C)[C@@H]3C[C@H]2[C@H](C1)N(C)C3`
label 0

Identify the outcome logged in this assay for the molecule shown: O=c1cc(-c2ccc(O)cc2)oc2c([C@@H]3OC(CO)[C@H](O)[C@@H](O)[C@H]3O)c(O)cc(O)c12 (some centres undefined)
label 0

Identify the outcome logged in this assay for the molecule shown: `CCC[C@@H](C)/C=C(\C)[C@H](O)[C@H](C)/C=C/CC[C@@H](O)[C@H](C)[C@H](O)[C@H](C)[C@H](O)[C@H](C)[C@H]1O[C@H]([C@H](C)C(=O)O)CC[C@@H]1C`
label 0

Identify the outcome logged in this assay for the molecule shown: C[C@@H](CCC[C@]1(C)C(=O)C=C[C@]23C[C@H]4C[C@H](O[C@@]4(C)C2)C31)C(=O)N[C@@H](CO)C(=O)O (some centres undefined)
label 0

Identify the outcome logged in this assay for the molecule shown: `CCCCCCC[C@@H](C/C=C/CCC(=O)NCCc1c[nH]c2ccccc12)OC`
label 0

Identify the outcome logged in this assay for the molecule shown: C=CC(=C)CC[C@]1(C)[C@H]2C[C@H](OC(=O)C(C)CC)C=C3[C@H](OC(C)=O)O[C@H](OC(C)=O)[C@@]32[C@H](OC)C[C@@H]1C (some centres undefined)
label 1

Identify the outcome logged in this assay for the molecule shown: CCCCCCCCCC(=O)[C@@H]1C(=O)N[C@@H](CC(C)C)C(=O)N[C@H](C)C(=O)N2CCC[C@H]2C(=O)N[C@@H](C(C)C)C(=O)N[C@H]2CS[C@H]1CNC2=O (cyclo(L[dA]PV[X1]))
label 0

Identify the outcome logged in this assay for the molecule shown: COC1C(O)C(OC(N)=O)C(Oc2ccc3c(O)c(NC(=O)c4ccc(O)c(CC=C(C)C)c4)c(=O)oc3c2C)OC1(C)C (centres undefined)
label 0

====

tested on: PA-1; assay: Primary qHTS to identify gynecologic anti-cancer compounds using libraries of approved drugs and bioactive compounds (AID 1345084); details: Gynecologic cancer cell panel viability, ATPlite luminescence, 48 h; series mostly up to 57.5 µM; further: nearly all actives have a fitted effect of over 55% in size
Inconclusive results are not listed. Activity calls are given as the source filed them. Calls follow the shape of the dose curve; as a rule, active = well fitted cell-killing curve with a large enough effect; inconclusive = small, poorly fitted or top-dose-only effect, or effect the other way; inactive = flat fitted curve, though single readings scatter.
Give your call using only these classes: label 1 = active, label 0 = inactive

Reference set (5 entries):
* COc1ccc(-c2nc(-c3cc(C(F)(F)F)cc(C(F)(F)F)c3)n(Cc3ccc(C(N)=O)cc3)c2-c2ccc(OC)cc2)cc1 | label 0
* CC(=O)N1CCN([C@H]2CCN(C(=O)N(C)[C@H](C)c3cc(C(F)(F)F)cc(C(F)(F)F)c3)[C@@H](c3ccc(F)cc3C)C2)CC1 | label 0
* CCNC(=O)[C@@H]1CCCN1C(=O)[C@H](CCCN=C(N)N)NC(=O)[C@H](CC(C)C)NC(=O)[C@@H](CC(C)C)NC(=O)[C@H](Cc1ccc(O)cc1)NC(=O)[C@H](CO)NC(=O)[C@H](Cc1c[nH]c2ccccc12)NC(=O)[C@H](Cc1cnc[nH]1)NC(=O)[C@@H]1CCC(=O)N1 | label 0
* CC(C)[C@@H](C)/C=C/[C@@H](C)[C@H]1CC[C@H]2C3=CC=C4C[C@@H](O)CC[C@]4(C)C3=CC[C@]12C | label 0
* CNc1ccc([N+](=O)[O-])cc1-n1cnc(-c2ccc(C(F)(F)F)cc2)c1 | label 0

Identify the outcome logged in this assay for the compound shown: `CNc1cc(OC)c(C(=O)N[C@@H]2CCN(Cc3ccccc3)[C@@H]2C)cc1Cl`
label 0

Identify the outcome logged in this assay for the compound shown: `CC/C(=C(\c1ccc(O)cc1)c1ccc(OCCNC)cc1)c1ccccc1`
label 0

Identify the outcome logged in this assay for the compound shown: COc1c(N2CC3CCCNC3C2)c(F)cc2c(=O)c(C(=O)O)cn(C3CC3)c12 (centres undefined)
label 0

Identify the outcome logged in this assay for the compound shown: `O=C(/C=C/n1cnc(-c2cc(C(F)(F)F)cc(C(F)(F)F)c2)n1)NNc1cnccn1`
label 1

Identify the outcome logged in this assay for the compound shown: O=C(Nc1ccc(F)cc1)N1CCc2ccccc2C1c1ccc(C(F)(F)F)cc1 (centres undefined)
label 0

Identify the outcome logged in this assay for the compound shown: `CCCCc1nc(C)c(CC(=S)N(C)C)c(=O)n1Cc1ccc(-c2ccccc2-c2nn[nH]n2)cc1`
label 0

Identify the outcome logged in this assay for the compound shown: `CC[C@H](C)[C@H]1O[C@]2(CC[C@@H]1C)C[C@@H]1C[C@@H](C/C=C(\C)[C@@H](O[C@H]3C[C@H](OC)[C@@H](O[C@H]4C[C@H](OC)[C@@H](O)[C@H](C)O4)[C@H](C)O3)[C@@H](C)/C=C/C=C3\CO[C@@H]4[C@H](O)C(C)=C[C@@H](C(=O)O1)[C@]34O)O2`
label 0

Identify the outcome logged in this assay for the compound shown: `C=C1/C(=C/C=C2\CCC[C@]3(C)[C@@H]([C@H](C)/C=C/C(=O)C4CC4)CC[C@@H]23)C[C@@H](O)C[C@@H]1O`
label 0

Identify the outcome logged in this assay for the compound shown: Cc1ccc(C2(COC(=O)C(C)C)CO2)c(OC(=O)C(C)C)c1 (centres undefined)
label 0
